target system: Melanocortin receptor 3 (Homo sapiens, UniProt P41968); further: assay procedure not described here
Sequence (P41968 whole entry): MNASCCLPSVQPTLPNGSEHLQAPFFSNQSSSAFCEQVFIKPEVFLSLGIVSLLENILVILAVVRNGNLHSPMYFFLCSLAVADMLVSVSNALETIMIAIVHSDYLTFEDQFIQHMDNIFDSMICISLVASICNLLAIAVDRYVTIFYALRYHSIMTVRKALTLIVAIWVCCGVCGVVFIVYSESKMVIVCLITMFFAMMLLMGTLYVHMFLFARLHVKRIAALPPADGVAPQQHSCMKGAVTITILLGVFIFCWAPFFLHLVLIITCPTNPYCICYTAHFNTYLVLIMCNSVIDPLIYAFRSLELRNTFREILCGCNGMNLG
parameter measured: AC50

- molecule: "CC(C)C[C@H](NC(=O)[C@@H](O)[C@H](N)Cc1ccccc1)C(=O)O [UBENIMEX]"
  AC50: "> 30 µM"
- molecule: "C=C1c2cccc(O)c2C(=O)C2=C(O)[C@]3(O)C(=O)C(C(N)=O)=C(O)[C@@H](N(C)C)[C@@H]3[C@@H](O)[C@H]12 [METHACYCLINE]"
  AC50: "> 30 µM"
- molecule: "CCOC(=O)c1c(CSc2ccccc2)n(C)c2cc(Br)c(O)c(CN(C)C)c12 [UMIFENOVIR]"
  AC50: "> 30 µM"

// query Answer with AC50 of O=C(O)COCCN1CCN(C(c2ccccc2)c2ccc(Cl)cc2)CC1 (stereo not given) [CETIRIZINE] measured for Melanocortin receptor 3 (Homo sapiens, UniProt P41968).
// result > 30 µM

// query State AC50 (Melanocortin receptor 3 (Homo sapiens, UniProt P41968)) of CCOC(=O)C(C)(C)Oc1ccc(Cl)cc1 [CLOFIBRATE] .
// result > 30 µM

// query Report AC50 from Melanocortin receptor 3 (Homo sapiens, UniProt P41968) testing of CC1=C(/C=C/C(C)=C/C=C/C(C)=C/CO)C(C)(C)CCC1 [RETINOL]
// result > 10 µM

// query Given O=C(CCCN1CCC(O)(c2ccc(Br)cc2)CC1)c1ccc(F)cc1 [BROMPERIDOL] , report its AC50 on Melanocortin receptor 3 (Homo sapiens, UniProt P41968).
// result > 30 µM

// query Recall the reported AC50 of CC(C)(O/N=C(\C(=O)N[C@@H]1C(=O)N2C(C(=O)[O-])=C(C[n+]3ccccc3)CS[C@H]12)c1csc(N)n1)C(=O)O [CEFTAZIDIME] on Melanocortin receptor 3 (Homo sapiens, UniProt P41968) and write it down.
// result > 300 µM

// query Provide the reported AC50 (system: Melanocortin receptor 3 (Homo sapiens, UniProt P41968)) for COc1ccccc1OC1(C)OC(=O)c2ccccc2O1 (stereo not given) [GUAIMESAL]; further: assay procedure not described here
// result > 30 µM

// query Specify the recorded AC50 for Cc1ccnc2c1NC(=O)c1cccnc1N2C1CC1 [NEVIRAPINE] , system: Melanocortin receptor 3 (Homo sapiens, UniProt P41968). Further: assay procedure not described here.
// result > 30 µM

// query Write down measured AC50 (Melanocortin receptor 3 (Homo sapiens, UniProt P41968)) for this molecule. OC[C@H]1O[C@@H](n2cnc3c2NC=NC[C@H]3O)C[C@@H]1O [PENTOSTATIN]
// result > 30 µM

// query Give measured AC50 for CC(C)Cc1ccc([C@H](C)C(=O)O)cc1 [DEXIBUPROFEN] (Melanocortin receptor 3 (Homo sapiens, UniProt P41968)).
// result > 30 µM

// query Write down the reported AC50 (system: Melanocortin receptor 3 (Homo sapiens, UniProt P41968)) of COc1cc(C(=O)NS(=O)(=O)c2ccccc2C)ccc1Cc1cn(C)c2ccc(NC(=O)OC3CCCC3)cc12 [ZAFIRLUKAST]; further: assay procedure not described here
// result > 10 µM

// query Give AC50 only, for CCCC(C)(COC(N)=O)COC(N)=O [MEPROBAMATE] , using Melanocortin receptor 3 (Homo sapiens, UniProt P41968) data.
// result > 10 µM

// query Find AC50 for O=C(O)c1ccc(NC(=O)[C@H](Cc2ccc(O)cc2)NC(=O)c2ccccc2)cc1 [BENTIROMIDE] on Melanocortin receptor 3 (Homo sapiens, UniProt P41968) and write it down.
// result > 10 µM

###

Reported values: AC50 for D(3) dopamine receptor (Homo sapiens), one per item.

Known AC50 results, listed for orientation:
- compound: "CC(COc1ccccc1)NC(C)C(O)c1ccc(O)cc1 (centres undefined)"
  target system: "D(3) dopamine receptor (Homo sapiens)"
  reported result: "0.037 µM"
- compound: "COC(=O)[C@H]1[C@H]2C[C@@H]3c4[nH]c5cc(OC)ccc5c4CCN3C[C@H]2C[C@@H](OC(=O)c2cc(OC)c(OC)c(OC)c2)[C@@H]1OC"
  target system: "D(3) dopamine receptor (Homo sapiens)"
  reported result: "> 30 µM"
- compound: "Cc1ccccc1C(=O)Nc1ccc(C(=O)N2CCCC(O)c3cc(Cl)ccc32)c(C)c1 (centres undefined)"
  target system: "D(3) dopamine receptor (Homo sapiens)"
  reported result: "> 30 µM"

// query Tell me AC50 of CC(=O)OC[C@H]1O[C@@H](n2ncc(=O)[nH]c2=O)[C@H](OC(C)=O)[C@@H]1OC(C)=O when tested on D(3) dopamine receptor (Homo sapiens). Further: assay procedure not described here.
Sequence (P35462 whole entry): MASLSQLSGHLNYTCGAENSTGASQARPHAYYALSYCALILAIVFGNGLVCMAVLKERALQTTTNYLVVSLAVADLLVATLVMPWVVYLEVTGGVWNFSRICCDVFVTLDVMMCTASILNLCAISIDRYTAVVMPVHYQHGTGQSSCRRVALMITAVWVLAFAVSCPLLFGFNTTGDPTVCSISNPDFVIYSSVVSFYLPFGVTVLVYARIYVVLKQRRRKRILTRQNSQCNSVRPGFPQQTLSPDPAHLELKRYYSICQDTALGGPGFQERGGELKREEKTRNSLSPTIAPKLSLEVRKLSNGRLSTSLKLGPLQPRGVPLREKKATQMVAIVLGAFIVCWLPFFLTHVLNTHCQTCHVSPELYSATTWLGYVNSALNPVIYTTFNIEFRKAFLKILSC
// result > 30 µM

###

target system: Progesterone receptor (Homo sapiens, UniProt P06401); further: assay procedure not described here
Sequence (P06401 whole entry): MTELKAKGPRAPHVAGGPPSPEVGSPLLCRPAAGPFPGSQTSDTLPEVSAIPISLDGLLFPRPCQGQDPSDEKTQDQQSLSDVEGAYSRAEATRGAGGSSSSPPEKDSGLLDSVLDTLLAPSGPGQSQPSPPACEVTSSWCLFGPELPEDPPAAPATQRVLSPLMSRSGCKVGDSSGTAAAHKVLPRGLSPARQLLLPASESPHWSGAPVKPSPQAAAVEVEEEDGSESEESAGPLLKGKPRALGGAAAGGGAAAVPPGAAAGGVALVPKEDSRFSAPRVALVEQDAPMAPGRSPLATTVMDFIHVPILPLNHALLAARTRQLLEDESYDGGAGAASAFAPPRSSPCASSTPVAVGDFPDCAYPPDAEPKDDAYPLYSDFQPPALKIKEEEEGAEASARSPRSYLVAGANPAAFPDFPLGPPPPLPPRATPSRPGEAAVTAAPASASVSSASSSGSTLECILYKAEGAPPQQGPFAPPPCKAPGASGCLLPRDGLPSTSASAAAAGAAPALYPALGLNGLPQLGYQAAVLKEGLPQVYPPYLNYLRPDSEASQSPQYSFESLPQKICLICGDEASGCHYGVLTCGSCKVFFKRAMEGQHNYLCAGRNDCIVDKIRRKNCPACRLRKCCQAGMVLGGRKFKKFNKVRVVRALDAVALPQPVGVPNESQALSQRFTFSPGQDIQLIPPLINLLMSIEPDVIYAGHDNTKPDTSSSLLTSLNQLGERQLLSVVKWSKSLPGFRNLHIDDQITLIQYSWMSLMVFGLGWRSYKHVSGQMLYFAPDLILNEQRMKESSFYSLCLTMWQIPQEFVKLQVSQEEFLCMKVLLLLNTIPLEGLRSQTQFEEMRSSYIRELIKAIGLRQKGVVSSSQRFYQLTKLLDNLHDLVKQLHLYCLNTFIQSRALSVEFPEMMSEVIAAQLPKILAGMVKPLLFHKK
Format: functional
parameter measured: AC50

- compound: "COc1cc(C(C)=O)ccc1OCCCN1CCC(c2noc3cc(F)ccc23)CC1 [ILOPERIDONE]"
  reported result: "> 30 µM"
- compound: "COc1ccc([C@@H]2CC(=O)c3c(O)cc(O)cc3O2)cc1O [HESPERETIN]"
  reported result: "> 10 µM"
- compound: "CCN1CCCC1CNC(=O)c1cc(S(=O)(=O)CC)ccc1OC (centres undefined) [SULTOPRIDE]"
  reported result: "> 30 µM"
- compound: "CNC[C@H](O)c1ccc(O)c(O)c1 [EPINEPHRINE]"
  reported result: "> 30 µM"
- compound: "O=C1OC(OC(=O)c2cccnc2Nc2cccc(C(F)(F)F)c2)c2ccccc21 (centres undefined) [TALNIFLUMATE]"
  reported result: "> 30 µM"
- compound: "Cc1nnc(SCC2=C(C(=O)O)N3C(=O)[C@@H](NC(=O)Cn4cnnn4)[C@H]3SC2)s1 [CEFAZOLIN]"
  reported result: "> 300 µM"

// query Tell us which AC50 value is on record for CCCc1nc2c(C)cc(-c3nc4ccccc4n3C)cc2n1Cc1ccc(-c2ccccc2C(=O)O)cc1
// result > 30 µM

// query Give me measured AC50, please, for this compound: CC(Cc1cccc(C(F)(F)F)c1)NCCOC(=O)c1ccccc1 (centres undefined) [BENFLUOREX]
// result > 30 µM

// query Please report AC50 for the following compound: O=c1[nH]c2ccccc2n1CCCN1CCN(C(c2ccccc2)c2ccccc2)CC1 [OXATOMIDE]
// result > 30 µM

###

// Adenosine receptor A2a (Homo sapiens, UniProt P29274) AC50 records

- molecule: "COc1ccccc1OC1(C)OC(=O)c2ccccc2O1 (centres undefined)"
  AC50: "> 30 µM"

// query Specify measured AC50 for CCN1CCCC1CNC(=O)c1cc(S(=O)(=O)CC)ccc1OC (centres undefined) [SULTOPRIDE] .
// result > 30 µM

// query Supply recorded AC50 for CCCCCCCN(CC)CCCC(O)c1ccc(NS(C)(=O)=O)cc1 (centres undefined) [IBUTILIDE] here.
// result > 30 µM

###

target system: Delta-type opioid receptor (Homo sapiens); further: assay procedure not described here
Sequence (P41143 whole entry): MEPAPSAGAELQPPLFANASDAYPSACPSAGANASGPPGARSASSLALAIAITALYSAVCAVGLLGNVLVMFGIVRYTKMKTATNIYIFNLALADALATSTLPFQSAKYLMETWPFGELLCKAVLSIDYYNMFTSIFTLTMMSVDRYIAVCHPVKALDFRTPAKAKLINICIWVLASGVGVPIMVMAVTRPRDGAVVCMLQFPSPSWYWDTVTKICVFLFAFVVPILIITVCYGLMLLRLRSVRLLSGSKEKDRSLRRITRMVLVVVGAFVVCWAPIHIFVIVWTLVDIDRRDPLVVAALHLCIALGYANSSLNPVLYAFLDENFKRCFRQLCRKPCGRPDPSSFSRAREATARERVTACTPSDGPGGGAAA
parameter measured: AC50

Use these answered entries as a reference point.
- compound: "C=CCN1CCc2nc(N)sc2CC1 [TALIPEXOLE]"
  AC50: "> 30 µM"
- compound: "C[N+](C)(C)CCOP(=O)(O)OP(=O)([O-])OC[C@H]1O[C@@H](n2ccc(N)nc2=O)[C@H](O)[C@@H]1O"
  AC50: "> 30 µM"
- compound: "C/C=C(/C(=C/C)c1ccc(O)cc1)c1ccc(O)cc1"
  AC50: "21 µM"
- compound: "CC(C)NC[C@H](O)COc1ccc(CC(N)=O)cc1"
  AC50: "> 10 µM"
- compound: "CC(O)(CS(=O)(=O)c1ccc(F)cc1)C(=O)Nc1ccc(C#N)c(C(F)(F)F)c1 (stereo not drawn) [BICALUTAMIDE]"
  AC50: "> 10 µM"

// query Quick one: give measured AC50 for C=C1c2cccc(O)c2C(=O)C2=C(O)[C@]3(O)C(=O)C(C(N)=O)=C(O)[C@@H](N(C)C)[C@@H]3[C@@H](O)[C@H]12
// result > 30 µM

// query Tell me measured AC50 for CCN1CC(CCN2CCOCC2)C(c2ccccc2)(c2ccccc2)C1=O (stereo not drawn) please.
// result > 30 µM

// query Note AC50 for the compound shown: CCOc1nc2cccc(C(=O)O)c2n1Cc1ccc(-c2ccccc2-c2nnn[nH]2)cc1
// result > 30 µM

###

target system: Gamma-aminobutyric acid receptor subunit alpha-1 (Rattus norvegicus, UniProt P62813); further: assay procedure not described here
Sequence (P62813 whole entry): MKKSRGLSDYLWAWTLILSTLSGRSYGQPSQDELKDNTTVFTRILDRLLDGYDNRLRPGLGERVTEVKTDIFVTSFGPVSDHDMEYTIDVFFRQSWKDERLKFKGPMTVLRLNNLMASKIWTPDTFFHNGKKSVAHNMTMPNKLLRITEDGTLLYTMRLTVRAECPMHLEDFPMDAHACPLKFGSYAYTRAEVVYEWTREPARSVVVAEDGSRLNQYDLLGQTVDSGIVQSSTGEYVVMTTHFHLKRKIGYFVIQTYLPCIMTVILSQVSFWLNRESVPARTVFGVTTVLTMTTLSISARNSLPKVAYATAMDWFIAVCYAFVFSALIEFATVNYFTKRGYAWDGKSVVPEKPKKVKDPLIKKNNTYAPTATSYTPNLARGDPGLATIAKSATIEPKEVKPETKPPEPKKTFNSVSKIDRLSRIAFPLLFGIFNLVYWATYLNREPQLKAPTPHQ
Format: functional
Listing: AC50 of selected molecules

Before answering, review these 4 worked examples.
- molecule: "CC(=O)Nc1ccc(CC(=O)O)cc1"
  AC50: "> 30 µM"
- molecule: "CC(C)NC(=N)NC(=N)Nc1ccc(Cl)c(Cl)c1"
  AC50: "> 30 µM"
- molecule: "CC(C(=O)O)c1ccc2c(c1)CC(=O)c1ccccc1S2 (stereo not given)"
  AC50: "> 30 µM"
- molecule: "NC[C@H]1CC[C@H](C(=O)Oc2ccc(CCC(=O)O)cc2)CC1 [CETRAXATE]"
  AC50: "> 30 µM"

// moving on: another record for AC50
// query Return reported AC50. Input molecule: CCOC(=O)C1=C(C)NC(C)=C(C(=O)OCC)C1c1ccccc1/C=C/C(=O)OC(C)(C)C
// result > 30 µM
